test system: EPLC-272H; assay: relative viability (nuclei count vs DMSO), 5 days (fraction); higher = more cells survive; details: first compound 0.03162 µM
Output class 1 for records whose relative viability is lower than 0.7, class 0 for records at or above 0.7.

Completed entries (count: 4):
O=c1cc(N2CCOCC2)oc2c(-c3cccc4c3sc3ccccc34)cccc12 + CC(C)C[C@H](NC(=O)[C@H](Cc1ccccc1)NC(=O)c1cnccn1)B(O)O [Bortezomib] (partner 0.002 µM): class 0
CCN(CC)CCCCNc1ncc2cc(-c3cc(OC)cc(OC)c3)c(NC(=O)NC(C)(C)C)nc2n1 + O=C(CCCCCCC(=O)Nc1ccccc1)NO [Vorinostat] (partner 1 µM): class 1
O=c1cc(N2CCOCC2)oc2c(-c3cccc4c3sc3ccccc34)cccc12 + C[C@@H](Oc1cc(-c2cnn(C3CCNCC3)c2)cnc1N)c1c(Cl)ccc(F)c1Cl [Crizotinib] (partner 1 µM): class 0
O=c1cc(N2CCOCC2)oc2c(-c3cccc4c3sc3ccccc34)cccc12 + O=C(c1cc(Cc2n[nH]c(=O)c3ccccc23)ccc1F)N1CCN(C(=O)C2CC2)CC1 [Olaparib] (partner 8 µM): class 0

Answer whether the molecule O=c1cc(N2CCOCC2)oc2c(-c3cccc4c3sc3ccccc34)cccc12 + NC(=O)Nc1cc(-c2cccc(F)c2)sc1C(=O)N[C@H]1CCCNC1 [AZD7762] (partner 0.2 µM) has relative viability strictly less than 0.7
class 1

Given the entry O=c1cc(N2CCOCC2)oc2c(-c3cccc4c3sc3ccccc34)cccc12 + COc1cc2c(Oc3ccc(NC(=O)C4(C(=O)Nc5ccc(F)cc5)CC4)cc3F)ccnc2cc1OCCCN1CCOCC1 [Foretinib] (partner 0.25 µM) , would its reported relative viability be below 0.7?
class 1

Does this molecule meet the criterion relative viability < 0.7? CCN(CC)CCCCNc1ncc2cc(-c3cc(OC)cc(OC)c3)c(NC(=O)NC(C)(C)C)nc2n1 + Cc1nc(Nc2ncc(C(=O)Nc3c(C)cccc3Cl)s2)cc(N2CCN(CCO)CC2)n1 [Dasatinib] (partner 0.075 µM)
class 0
